Tested on: Human immunodeficiency virus 1
method summary: Antiviral activity against HIV1 with reverse transcriptase Y181C mutation in MT4 cells after 5 days by MTT method
Format: functional, organism-based
experimental conditions: Human immunodeficiency virus 1, MT4, 120 h
pEC50: −log10 of the molar value.
Documented pEC50 across a set of molecules
measured quantity: pEC50

molecule: Cc1c(Cc2c(Cl)cccc2Cl)nc(S/C=C/c2ccc(F)cc2)[nH]c1=O
value qualifier: <
observed measurement: 4.23
--
molecule: COc1ccc(/C=C/CSc2nc(C(C)c3c(F)cccc3F)c(C)c(=O)[nH]2)cc1 (centres undefined)
value qualifier: =
observed measurement: 6.89
--
molecule: COc1ccc(CSc2nc(Cc3ccc(C#N)cc3)c(C)c(=O)[nH]2)cc1
value qualifier: <
observed measurement: 4.18
--
molecule: CCc1c(Cc2c(Cl)cccc2Cl)nc(SCc2ccc([N+](=O)[O-])cc2)[nH]c1=O
value qualifier: =
observed measurement: 5.80
--
molecule: COc1ccc(CSc2nc(C(C)c3c(F)cccc3F)c(C)c(=O)[nH]2)cc1 (centres undefined)
value qualifier: =
observed measurement: 6.52
--
molecule: CCC(c1nc(SCc2ccc(OC)cc2)[nH]c(=O)c1C)c1c(F)cccc1F (centres undefined)
value qualifier: =
observed measurement: 5.30
--
molecule: COc1ccc(/C=C/CSc2nc(Cc3c(Cl)cccc3Cl)c(C)c(=O)[nH]2)cc1
value qualifier: <
observed measurement: 6.02
--
molecule: Cc1c(Cc2ccc(C#N)cc2)nc(SCc2ccc(C#N)cc2)[nH]c1=O
value qualifier: <
observed measurement: 4.17
--
molecule: CCc1c(C(C)c2c(F)cccc2F)nc(SC/C=C/c2ccc([N+](=O)[O-])cc2)[nH]c1=O (centres undefined)
value qualifier: <
observed measurement: 5.24

Each recorded value in this set is attributed to ChEMBL document CHEMBL1138362.
